# test.target: T1, EsCas13d, nuclease-dead (Eubacterium siraeum, UniProt B0MS50, R295A;H300A;R849A;H854A)
# T1 sequence: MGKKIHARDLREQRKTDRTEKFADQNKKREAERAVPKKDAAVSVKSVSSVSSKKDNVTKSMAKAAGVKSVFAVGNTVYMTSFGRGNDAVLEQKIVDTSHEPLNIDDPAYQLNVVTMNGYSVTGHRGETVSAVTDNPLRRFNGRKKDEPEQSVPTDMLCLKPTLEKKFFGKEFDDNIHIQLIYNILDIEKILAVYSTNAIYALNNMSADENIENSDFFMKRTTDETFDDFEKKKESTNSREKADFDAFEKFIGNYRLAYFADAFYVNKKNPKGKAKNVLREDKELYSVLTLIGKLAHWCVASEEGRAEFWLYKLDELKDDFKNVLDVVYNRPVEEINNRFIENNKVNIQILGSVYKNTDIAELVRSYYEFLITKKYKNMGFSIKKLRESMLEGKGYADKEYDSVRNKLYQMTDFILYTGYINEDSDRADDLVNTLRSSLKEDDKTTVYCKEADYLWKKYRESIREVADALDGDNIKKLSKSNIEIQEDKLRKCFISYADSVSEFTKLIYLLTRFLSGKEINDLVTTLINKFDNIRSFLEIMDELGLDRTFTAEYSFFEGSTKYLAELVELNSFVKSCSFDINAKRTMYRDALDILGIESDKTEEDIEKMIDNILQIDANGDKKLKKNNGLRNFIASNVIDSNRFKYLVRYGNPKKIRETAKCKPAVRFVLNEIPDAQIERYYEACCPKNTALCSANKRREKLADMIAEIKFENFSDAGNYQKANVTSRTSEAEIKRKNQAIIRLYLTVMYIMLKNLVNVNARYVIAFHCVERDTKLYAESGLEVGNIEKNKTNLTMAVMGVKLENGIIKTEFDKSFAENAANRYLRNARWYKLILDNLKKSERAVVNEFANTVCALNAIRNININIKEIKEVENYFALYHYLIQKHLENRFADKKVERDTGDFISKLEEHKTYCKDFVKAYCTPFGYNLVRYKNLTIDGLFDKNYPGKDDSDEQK
# experiment.summary: crRNA (strand 1, pre-loaded); Mg2+; 40 mM Tris-HCl pH 7.5, 150 mM NaCl, 6 mM MgCl2, 1 mM DTT, 0.1% Tween-20, 0.2 mg/ml BSA; 25 C; 10 min per concentration, then washed
# assay.conditions: tags: His6-TwinStrep-SUMO cleaved; N-terminal SNAP kept (SNAP-Surface 488); label: 3' end held by stalled T7 RNA polymerase
// NB: equality with 10 nM counts as F; only Kd strictly below is T

1. target 1 insA 3' of 7,insC 3' of 1 (mixed) RNA 1: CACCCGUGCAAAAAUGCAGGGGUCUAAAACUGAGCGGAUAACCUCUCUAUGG RNA 2: GGGAAUGGAUCCACAUCUACGAAUUCGUACCAUAGAGAGGUUAUCACGCUCACCCGAGAUCGGAAGAGCACACGU :: T
2. target 1 C7G,U8C (mixed) RNA 1: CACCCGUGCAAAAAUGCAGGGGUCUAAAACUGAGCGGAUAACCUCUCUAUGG RNA 2: GGGAAUGGAUCCACAUCUACGAAUUCGUACCAUAGAGAGGUUACGCGCUCACCGAGAUCGGAAGAGCACACGU :: F
3. target 1 G17U,A20C (mixed) RNA 1: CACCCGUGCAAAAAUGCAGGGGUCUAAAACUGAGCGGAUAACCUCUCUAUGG RNA 2: GGGAAUGGAUCCACAUCUACGAAUUCGUACCCUAUAGAGGUUAUCCGCUCACCGAGAUCGGAAGAGCACACGU :: F
4. target 2 MT 5'PFS AGA 3'PFS ACA (mixed) RNA 1: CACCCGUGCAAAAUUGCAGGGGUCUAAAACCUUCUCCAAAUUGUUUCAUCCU RNA 2: GGGAAUGGAUCCACAUCUACGAAUUCAGAAGGAUGAAACAAUUUGGAGAAGACAAGAUCGGAAGAGCACACGU :: T
5. target 1 C6U,A14G (mixed) RNA 1: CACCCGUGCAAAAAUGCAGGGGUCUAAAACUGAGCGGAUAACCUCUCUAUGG RNA 2: GGGAAUGGAUCCACAUCUACGAAUUCGUACCAUAGAGGGGUUAUCUGCUCACCGAGAUCGGAAGAGCACACGU :: F
6. target 3 insA 3' of 20,insU 3' of 19 (mixed) RNA 1: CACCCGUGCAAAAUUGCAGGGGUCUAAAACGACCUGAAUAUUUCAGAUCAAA RNA 2: GGGAAUGGAUCCACAUCUACGAAUUCGUUUUUAGUAUCUGAAAUAUUCAGGUCUGCAGAUCGGAAGAGCACACGU :: F
7. target 1 MT 5'PFS GUG 3'PFS GCC (mixed) RNA 1: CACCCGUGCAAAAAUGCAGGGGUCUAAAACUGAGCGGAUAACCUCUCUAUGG RNA 2: GGGAAUGGAUCCACAUCUACGAAUUCGUGCCAUAGAGAGGUUAUCCGCUCAGCCAGAUCGGAAGAGCACACGU :: F
8. target 1 MT 5'PFS GGA 3'PFS AAA (mixed) RNA 1: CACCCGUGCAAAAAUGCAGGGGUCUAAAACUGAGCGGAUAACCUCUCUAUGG RNA 2: GGGAAUGGAUCCACAUCUACGAAUUCGGACCAUAGAGAGGUUAUCCGCUCAAAAAGAUCGGAAGAGCACACGU :: F
9. target 1 del13,del17 (mixed) RNA 1: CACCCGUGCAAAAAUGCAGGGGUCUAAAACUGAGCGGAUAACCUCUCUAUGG RNA 2: GGGAAUGGAUCCACAUCUACGAAUUCGUACCAUAAGAGUUAUCCGCUCACCGAGAUCGGAAGAGCACACGU :: F
10. target 1 MT 5'PFS AGA 3'PFS AAU (mixed) RNA 1: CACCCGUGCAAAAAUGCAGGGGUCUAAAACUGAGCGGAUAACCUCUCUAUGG RNA 2: GGGAAUGGAUCCACAUCUACGAAUUCAGACCAUAGAGAGGUUAUCCGCUCAAAUAGAUCGGAAGAGCACACGU :: F
11. target 1 MT 5'PFS GGA 3'PFS UUC (mixed) RNA 1: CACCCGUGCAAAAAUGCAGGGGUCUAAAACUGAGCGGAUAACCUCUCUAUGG RNA 2: GGGAAUGGAUCCACAUCUACGAAUUCGGACCAUAGAGAGGUUAUCCGCUCAUUCAGAUCGGAAGAGCACACGU :: F
12. target 1 MT 5'PFS ACU 3'PFS AUU (mixed) RNA 1: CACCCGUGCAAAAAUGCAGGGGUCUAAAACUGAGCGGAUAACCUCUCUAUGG RNA 2: GGGAAUGGAUCCACAUCUACGAAUUCACUCCAUAGAGAGGUUAUCCGCUCAAUUAGAUCGGAAGAGCACACGU :: F
13. target 1 insC 3' of 13,insC 3' of 13 (mixed) RNA 1: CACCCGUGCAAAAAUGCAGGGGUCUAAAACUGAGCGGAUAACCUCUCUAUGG RNA 2: GGGAAUGGAUCCACAUCUACGAAUUCGUACCAUAGAGAGCCGUUAUCCGCUCACCGAGAUCGGAAGAGCACACGU :: F
